These measurements were taken from the supplement of paper PMC11061612.

Test system: SIMA (Neuroblastoma)
assay details: Bliss excess, mean over the matrix (fraction); higher = more synergy
property name: Bliss excess
Numbers only.

Prompt: May I ask what Bliss excess has been recorded for CN(C)CCCOc1ccc(-c2ccc3ncc4c(c3c2)n(C2CCOCC2)c(=O)n4C)cn1 [AZD0156] + C[C@@H]1COCCN1C2=NC(=NC(=C2)C3(CC3)[S@](=N)(=O)C)C4=C5C=CNC5=NC=C4 [AZD6738] (first compound max 1 µM, 7x7, partner max 10 µM) ?
Response: 0.074

----------
System: HMV-II (Melanoma)
assay details: combination Emax (second highest fraction inhibited in the dose matrix, 72 h); higher = more inhibition; extreme values may be limits of the assay
property name: combination Emax
Give bare numbers.

molecule	measured target	combination Emax
CCN(CCO)CCCOc1ccc2c(Nc3cc(CC(=O)Nc4cccc(F)c4)[nH]n3)ncnc2c1 [AZD2811] + C[C@@H]1COCCN1C2=NC(=NC(=C2)C3(CC3)[S@](=N)(=O)C)C4=C5C=CNC5=NC=C4 [AZD6738] (first compound max 1 µM, 7x7, partner max 10 µM)	HMV-II (Melanoma)	0.313
Cc1c2c(nn1C)CSCc1cc(n(C)n1)CSc1cc(c3ccccc3c1)OCCCc1c(C(=O)O)n(C)c3c-2c(Cl)ccc13 [AZD5991] + Nc1ccn([C@@H]2O[C@H](CO)[C@@H](O)C2(F)F)c(=O)n1 [Gemcitabine] (first compound max 1 µM, 7x7, partner max 0.3 µM)	HMV-II (Melanoma)	0.595
Cc1c2c(nn1C)CSCc1cc(n(C)n1)CSc1cc(c3ccccc3c1)OCCCc1c(C(=O)O)n(C)c3c-2c(Cl)ccc13 [AZD5991] + CC1(C)CCC(CN2CCN(c3ccc(C(=O)NS(=O)(=O)c4ccc(NCC5CCOCC5)c([N+](=O)[O-])c4)c(Oc4cnc5[nH]ccc5c4)c3)CC2)=C(c2ccc(Cl)cc2)C1 [Venetoclax] (first compound max 1 µM, 7x7, partner max 1 µM)	HMV-II (Melanoma)	0.151

Consider the following items and state reported combination Emax for each.
1. CC1(C)CCC(CN2CCN(c3ccc(C(=O)NS(=O)(=O)c4ccc(NCC5CCOCC5)c([N+](=O)[O-])c4)c(Oc4cnc5[nH]ccc5c4)c3)CC2)=C(c2ccc(Cl)cc2)C1 [Venetoclax] + CN(C)CCCOc1ccc(-c2ccc3ncc4c(c3c2)n(C2CCOCC2)c(=O)n4C)cn1 [AZD0156] (first compound max 1 µM, 7x7, partner max 1 µM)
2. Cc1c2c(nn1C)CSCc1cc(n(C)n1)CSc1cc(c3ccccc3c1)OCCCc1c(C(=O)O)n(C)c3c-2c(Cl)ccc13 [AZD5991] + Cc1cc2ncnn2cc1Nc1ncc2c(n1)n(C1CCOCC1)c(=O)n2C [AZD7648] (first compound max 1 µM, 7x7, partner max 10 µM)
3. COc1cccc(OCCCN)c1-c1cc(Nc2cnc(C#N)cn2)n[nH]1 [Prexasertib] + CN(C)CCCOc1ccc(-c2ccc3ncc4c(c3c2)n(C2CCOCC2)c(=O)n4C)cn1 [AZD0156] (first compound max 1 µM, 7x7, partner max 1 µM)
4. COc1nnc2ccc(N3CCC(c4ccc(OCCN5CCN(C)C(=O)[C@H]5C)cc4)CC3)nn12 [AZD5153] + CC1(C)CCC(CN2CCN(c3ccc(C(=O)NS(=O)(=O)c4ccc(NCC5CCOCC5)c([N+](=O)[O-])c4)c(Oc4cnc5[nH]ccc5c4)c3)CC2)=C(c2ccc(Cl)cc2)C1 [Venetoclax] (first compound max 1 µM, 7x7, partner max 1 µM)

Response:
1. 0.289
2. 0.273
3. 0.517
4. 0.524

----------
Tested on: CAL-51 (Breast Carcinoma)
assay details: Bliss excess, mean over the matrix (fraction); higher = more synergy
Would you mind labelling by Bliss excess? At or over 0.02 is met, under is not met.

Look over these answered cases.
molecule	label value
COc1cccc(OCCCN)c1-c1cc(Nc2cnc(C#N)cn2)n[nH]1 [Prexasertib] + CN(C)CCCOc1ccc(-c2ccc3ncc4c(c3c2)n(C2CCOCC2)c(=O)n4C)cn1 [AZD0156] (first compound max 1 µM, 7x7, partner max 1 µM)	met
CN(CCO)CC[C@H](CSc1ccccc1)Nc1ccc(S(=O)(=O)NC(=O)c2ccc(N3CCC([C@@H](O)c4ccccc4-c4ccc(Cl)cc4)CC3)cc2)cc1S(=O)(=O)C(F)(F)F [AZD4320] + Cn1cnc2c(F)c(Nc3ccc(Br)cc3Cl)c(C(=O)NOCCO)cc21 [Selumetinib] (first compound max 1 µM, 7x7, partner max 3 µM)	met
CN(CCO)CC[C@H](CSc1ccccc1)Nc1ccc(S(=O)(=O)NC(=O)c2ccc(N3CCC([C@@H](O)c4ccccc4-c4ccc(Cl)cc4)CC3)cc2)cc1S(=O)(=O)C(F)(F)F [AZD4320] + CN(C)CCCOc1ccc(-c2ccc3ncc4c(c3c2)n(C2CCOCC2)c(=O)n4C)cn1 [AZD0156] (first compound max 1 µM, 7x7, partner max 1 µM)	not met
COc1cc2c(cc1OCCCCCOc1cc3c(cc1OC)C(=O)N1C=C(C)C[C@H]1C=N3)N=C[C@@H]1CC(C)=CN1C2=O [SG3199] + O=C(c1cc(Cc2n[nH]c(=O)c3ccccc23)ccc1F)N1CCN(C(=O)C2CC2)CC1 [Olaparib] (first compound max 0.001 µM, 7x7, partner max 10 µM)	not met
COc1nnc2ccc(N3CCC(c4ccc(OCCN5CCN(C)C(=O)[C@H]5C)cc4)CC3)nn12 [AZD5153] + Cc1c2c(nn1C)CSCc1cc(n(C)n1)CSc1cc(c3ccccc3c1)OCCCc1c(C(=O)O)n(C)c3c-2c(Cl)ccc13 [AZD5991] (first compound max 1 µM, 7x7, partner max 1 µM)	met
CN(CCO)CC[C@H](CSc1ccccc1)Nc1ccc(S(=O)(=O)NC(=O)c2ccc(N3CCC([C@@H](O)c4ccccc4-c4ccc(Cl)cc4)CC3)cc2)cc1S(=O)(=O)C(F)(F)F [AZD4320] + C[C@@H]1COCCN1C2=NC(=NC(=C2)C3(CC3)[S@](=N)(=O)C)C4=C5C=CNC5=NC=C4 [AZD6738] (first compound max 1 µM, 7x7, partner max 10 µM)	not met

Prompt: Has CN(CCO)CC[C@H](CSc1ccccc1)Nc1ccc(S(=O)(=O)NC(=O)c2ccc(N3CCC([C@@H](O)c4ccccc4-c4ccc(Cl)cc4)CC3)cc2)cc1S(=O)(=O)C(F)(F)F [AZD4320] + C=CCn1c(=O)c2cnc(Nc3ccc(N4CCN(C)CC4)cc3)nc2n1-c1cccc(C(C)(C)O)n1 [AZD1775] (first compound max 1 µM, partner max 1 µM) a recorded Bliss excess greater than or equal to 0.02?
Response: not met

Prompt: Has CCN(CCO)CCCOc1ccc2c(Nc3cc(CC(=O)Nc4cccc(F)c4)[nH]n3)ncnc2c1 [AZD2811] + O=C(c1cc(Cc2n[nH]c(=O)c3ccccc23)ccc1F)N1CCN(C(=O)C2CC2)CC1 [Olaparib] (first compound max 1 µM, 7x7, partner max 10 µM) a recorded Bliss excess greater than or equal to 0.02?
Response: met

Prompt: Has COc1nnc2ccc(N3CCC(c4ccc(OCCN5CCN(C)C(=O)[C@H]5C)cc4)CC3)nn12 [AZD5153] + CN(CC[C@H](CSC1=CC=CC=C1)NC2=C(C=C(C=C2)S(=O)(=O)NC(=O)C3=CC=C(C=C3)N4CCC(CC4)[C@H](C5=CC=CC=C5C6=CC=C(C=C6)Cl)O)S(=O)(=O)C(F)(F)F)CCO [AZD4320] (first compound max 1 µM, 7x7, partner max 1 µM) a recorded Bliss excess greater than or equal to 0.02?
Response: met

----------
I'd appreciate it if you could supply combination Emax values for the items below.
Test system: RKO (Colorectal Carcinoma)
assay details: combination Emax (second highest fraction inhibited in the dose matrix, 72 h); higher = more inhibition; extreme values may be limits of the assay
Numbers only.

Worked cases, combination Emax given:
compound	combination Emax
CN(C)CCCOc1ccc(-c2ccc3ncc4c(c3c2)n(C2CCOCC2)c(=O)n4C)cn1 [AZD0156] + CCN(CCO)CCCOc1ccc2c(Nc3cc(CC(=O)Nc4cccc(F)c4)[nH]n3)ncnc2c1 [AZD2811] (first compound max 1 µM, 7x7, partner max 1 µM)	0.213
Cc1c2c(nn1C)CSCc1cc(n(C)n1)CSc1cc(c3ccccc3c1)OCCCc1c(C(=O)O)n(C)c3c-2c(Cl)ccc13 [AZD5991] + CC1(C)CCC(CN2CCN(c3ccc(C(=O)NS(=O)(=O)c4ccc(NCC5CCOCC5)c([N+](=O)[O-])c4)c(Oc4cnc5[nH]ccc5c4)c3)CC2)=C(c2ccc(Cl)cc2)C1 [Venetoclax] (first compound max 1 µM, 7x7, partner max 1 µM)	0.225

Could you now look at the following compound, please?
Prompt: May I ask what combination Emax has been recorded for COc1nnc2ccc(N3CCC(c4ccc(OCCN5CCN(C)C(=O)[C@H]5C)cc4)CC3)nn12 [AZD5153] + CC1(C)CCC(CN2CCN(c3ccc(C(=O)NS(=O)(=O)c4ccc(NCC5CCOCC5)c([N+](=O)[O-])c4)c(Oc4cnc5[nH]ccc5c4)c3)CC2)=C(c2ccc(Cl)cc2)C1 [Venetoclax] (first compound max 1 µM, 7x7, partner max 1 µM) ?
Response: 0.757
